Measured logP, listed per entry.
Assay: Log P (octanol/water partition coefficient)
Type: physicochemical

Guide cases for logP, answers given:
molecule: CCCCCCCCCCN1C2=C(C(=O)CC(C)(C)C2)C(c2cc(OC)c(O)c(OC)c2)C2=C1CC(C)(C)CC2=O [Example 7]
logP: 5.34
//
molecule: COc1cc(C2C3=C(CC(C)(C)CC3=O)N(CCCc3ccccc3)C3=C2C(=O)CC(C)(C)C3)ccc1O [Example 23]
logP: 4.15
//
molecule: CCCCCCCCCN1C2=C(C(=O)CC(C)(C)C2)C(c2ccc(O)c(OC)c2)C2=C1CC(C)(C)CC2=O [Example 19]
logP: 5.05

## Task Please look at this molecule and report its logP: CCCN1C2=C(C(=O)CC(C)(C)C2)C(c2ccc(O)c(OC)c2)C2=C1CC(C)(C)CC2=O [Example 13]
## Result 2.55

## Task Please look at this molecule and report its logP: CCCCCCCCN1C2=C(C(=O)CC(C)(C)C2)C(c2ccc(O)c(OC)c2)C2=C1CC(C)(C)CC2=O [Example 18]
## Result 4.63

## Task Please look at this molecule and report its logP: CCCCCCCCCCCN1C2=C(C(=O)CC(C)(C)C2)C(c2ccc(O)c(OC)c2)C2=C1CC(C)(C)CC2=O [Example 20]
## Result 5.89

## Task Please look at this molecule and report its logP: CCCCCCCCCCCCN1C2=C(C(=O)CC(C(C)C)C2)C(c2ccc(O)c(OC)c2)C2=C1CC(C(C)C)CC2=O (stereo not drawn) [Example 9]
## Result > 5

## Task Please look at this molecule and report its logP: COc1cc(C2C3=C(CC(C)(C)CC3=O)N(C)C3=C2C(=O)CC(C)(C)C3)ccc1O [Example 11]
## Result 1.72

## Task Please look at this molecule and report its logP: CCN1C2=C(C(=O)CC(C)(C)C2)C(c2ccc(O)c(OC)c2)C2=C1CC(C)(C)CC2=O [Example 12]
## Result 2.06

## Task Please look at this molecule and report its logP: COc1cc(C2C3=C(CC(C)(C)CC3=O)N(CC(c3ccccc3)c3ccccc3)C3=C2C(=O)CC(C)(C)C3)ccc1O [Example 24]
## Result 5.32

## Task Please look at this molecule and report its logP: CCCCCCCCCCCCN1C2=C(C(=O)CC(C)(C)C2)C(c2ccc(O)c(OC)c2)C2=C1CC(C)(C)CC2=O [Example 1]
## Result 6.3

## Task Please look at this molecule and report its logP: CCCCCCN1C2=C(C(=O)CC(C)(C)C2)C(c2ccc(O)c(OC)c2)C2=C1CC(C)(C)CC2=O [Example 16]
## Result 3.8

## Task Please look at this molecule and report its logP: CCCCN1C2=C(C(=O)CC(C)(C)C2)C(c2ccc(O)c(OC)c2)C2=C1CC(C)(C)CC2=O [Example 14]
## Result 2.97

## Task Please look at this molecule and report its logP: CCCCCCCCCCCCN1C2=C(C(=O)CC(C)(C)C2)C(c2cc(C(C)(C)C)c(O)c(C(C)(C)C)c2)C2=C1CC(C)(C)CC2=O [Example 8]
## Result > 5

## Task Please look at this molecule and report its logP: COc1cc(C2C3=C(CC(C)(C)CC3=O)N(Cc3ccccc3)C3=C2C(=O)CC(C)(C)C3)ccc1O [Example 21]
## Result 3.46
